The reported measurements were obtained from ChEMBL document CHEMBL3988442.

- Test system: Trypanosoma cruzi
- test.details: Trypanosoma cruzi phosphomannomutase and mannose-1-phosphate guanylyltransferase assay
- Type: functional
- Design: scale not given: direction of the effect not stated beside the values
- study.conditions: 10 µM
value.kind: Percent Effect (%)
Only the number, expressed in %, is required.

# Percent Effect of OC1(Cn2ccc3ccncc32)CCN(Cc2ccccn2)CC1 = -10.7

Recorded Percent Effect (compound c1cn2c(n1)CN(CC1CC1)CC(CN1CCOCC1)C2 (centres undefined) ): -2.24

Recorded result, Cc1cc(C)cc(-c2cccc(CC3(C(=O)O)CCOCC3)c2)c1 , Percent Effect: -8.1

Value of Percent Effect reported for the compound c1nc2n(n1)CC(NCc1csc(-c3ccsc3)n1)CC2 (centres undefined) is 1.97

// field: Percent Effect; key: CCC(O)CN1CCN(C(=O)c2cccn2Cc2ccccc2)CC1 (centres undefined) ; value = -5.95

# Percent Effect (compound: CC(C)CN1C(=O)C2(CCN(Cc3nccs3)C2)c2ccccc21 (centres undefined) ) is -5.08

Record O=C1CO[C@@H]2CN(CC3CCOCC3)C[C@H]2N1CC1CC1 . Reported Percent Effect: -5.18

CC(C)c1nc(CN(C)C2CCN(CCNS(C)(=O)=O)C2)no1 (centres undefined) yielded Percent Effect of -5.78

Briefly, Percent Effect measured for CCCNCc1cn(C)nc1-c1cccnc1 : -6.55

So, O[C@]1(c2ccccn2)CC[C@@H]2CN(Cc3cccc4ncccc34)C[C@@H]21 ? Its Percent Effect was -1.38

The compound listed as CN(C)C(=O)N1CCN(Cc2nnc(C(C)(C)C)o2)CC1 has a reported Percent Effect of 0

The compound listed as O=C(O)c1cc(S(=O)(=O)Nc2cc(F)ccc2F)cc2c1OCCO2 has a reported Percent Effect of -6.44

So for CS(=O)(=O)CC(=O)N1C[C@@H]2COC[C@]2(c2nnc(C3CC3)o2)C1 , the logged Percent Effect turned out to be 3.86

// sample COC[C@@]12CCO[C@@H]1CCN(C(=O)Cc1ccccc1F)C2 , its Percent Effect was -0.595
